This section presents molecules with their documented inhibition values.
biological target: Casein kinase I isoform gamma-2 (Homo sapiens) (UniProt P78368); conditions: at 1 µM
Sequence (P78368 whole entry, looked up, canonical isoform): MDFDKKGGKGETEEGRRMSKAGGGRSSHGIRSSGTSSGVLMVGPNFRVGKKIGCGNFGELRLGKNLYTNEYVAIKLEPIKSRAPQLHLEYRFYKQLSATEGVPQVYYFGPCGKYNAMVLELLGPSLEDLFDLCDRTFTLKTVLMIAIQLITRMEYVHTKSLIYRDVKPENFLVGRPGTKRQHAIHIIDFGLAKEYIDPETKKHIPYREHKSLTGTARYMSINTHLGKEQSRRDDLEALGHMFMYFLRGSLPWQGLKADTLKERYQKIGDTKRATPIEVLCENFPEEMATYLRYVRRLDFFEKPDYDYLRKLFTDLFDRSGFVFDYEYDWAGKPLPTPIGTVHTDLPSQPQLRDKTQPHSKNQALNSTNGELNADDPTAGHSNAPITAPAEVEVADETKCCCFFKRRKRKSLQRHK
Description: GSK_PKIS: CK1-g2 mean inhibition at 1 uM [Nanosyn]

Below are worked cases with known answers.
Query string: Annotate the molecule Cc1nc(-c2ccccc2)n2nc(NCCCN3CCOCC3)ncc12 with its measured inhibition.
Result string: 2.19%

Query string: Annotate the molecule COc1cccc(-n2ncc3c(N/N=C/c4ccc(C)cc4)ncnc32)c1 with its measured inhibition.
Result string: 12%

Query string: Annotate the molecule O=S(=O)(CCOCc1ccc(-c2ccc3ncnc(Nc4ccc(OCc5cccc(F)c5)c(Cl)c4)c3c2)o1)c1ccccc1 with its measured inhibition.
Result string: 1.75%

Query string: Annotate the molecule Nc1nccc(-c2c(-c3ccc(F)cc3)ncn2CCCN2CCOCC2)n1 with its measured inhibition.
Result string: 4.12%

As a next step, examine the molecule that follows.
Query string: Annotate the molecule COc1cccc(-n2nc(C)c3c(N/N=C(\C)c4ccncc4)ncnc32)c1 with its measured inhibition.
Result string: 0.28%

###

test system: Epidermal growth factor receptor (Homo sapiens), P00533 [L858R]; settings: at 0.1 µM
Sequence (P00533 whole entry L858R): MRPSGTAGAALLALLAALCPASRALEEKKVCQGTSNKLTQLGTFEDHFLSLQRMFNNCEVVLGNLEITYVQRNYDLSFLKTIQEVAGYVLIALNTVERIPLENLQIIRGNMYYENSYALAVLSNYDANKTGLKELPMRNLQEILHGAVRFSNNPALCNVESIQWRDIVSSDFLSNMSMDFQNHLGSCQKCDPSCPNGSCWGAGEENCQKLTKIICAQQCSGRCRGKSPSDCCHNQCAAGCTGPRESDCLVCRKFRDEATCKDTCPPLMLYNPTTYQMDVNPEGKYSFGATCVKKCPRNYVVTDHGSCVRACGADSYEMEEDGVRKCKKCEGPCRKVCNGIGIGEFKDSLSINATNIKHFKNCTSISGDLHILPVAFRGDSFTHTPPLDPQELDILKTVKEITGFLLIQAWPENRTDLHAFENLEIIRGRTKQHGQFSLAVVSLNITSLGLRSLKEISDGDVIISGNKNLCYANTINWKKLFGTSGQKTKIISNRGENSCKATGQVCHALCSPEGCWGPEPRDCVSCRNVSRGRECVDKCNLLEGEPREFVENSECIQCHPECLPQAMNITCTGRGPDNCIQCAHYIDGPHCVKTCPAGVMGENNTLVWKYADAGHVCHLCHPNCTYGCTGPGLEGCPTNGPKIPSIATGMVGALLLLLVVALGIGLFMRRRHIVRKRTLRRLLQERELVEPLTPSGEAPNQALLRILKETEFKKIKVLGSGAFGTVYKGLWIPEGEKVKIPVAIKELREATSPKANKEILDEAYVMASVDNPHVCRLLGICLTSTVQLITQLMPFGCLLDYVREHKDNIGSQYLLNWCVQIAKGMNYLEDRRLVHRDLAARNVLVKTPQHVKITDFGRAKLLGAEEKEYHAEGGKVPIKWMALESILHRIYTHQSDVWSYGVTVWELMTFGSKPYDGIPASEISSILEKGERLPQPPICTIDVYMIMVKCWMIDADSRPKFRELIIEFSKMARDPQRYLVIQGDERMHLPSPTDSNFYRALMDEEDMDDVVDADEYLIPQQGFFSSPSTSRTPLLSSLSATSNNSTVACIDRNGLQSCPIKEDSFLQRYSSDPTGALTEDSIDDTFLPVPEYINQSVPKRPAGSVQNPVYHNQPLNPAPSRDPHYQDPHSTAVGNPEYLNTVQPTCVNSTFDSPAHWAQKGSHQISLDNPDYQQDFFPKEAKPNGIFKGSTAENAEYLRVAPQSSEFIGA
VALUE KIND: inhibition (%)
The response must be a number in % with no trailing unit.

Below are worked cases with known answers.
Query string: Annotate the compound Cc1ccc(NC(=O)CC2CC2)cc1-c1ccc(C(=O)NCC2CC2)cc1 with its measured inhibition.
Result string: 3.95

Query string: Annotate the compound COC(=O)c1ccc2c(c1)C(=Cc1cc(Br)c(O)c(Br)c1)C(=O)N2 with its measured inhibition.
Result string: -1.26

Query string: Annotate the compound COc1cc2ncn(-c3cc(OCc4ccccc4S(C)(=O)=O)c(C#N)s3)c2cc1OC with its measured inhibition.
Result string: 9.37

***
Query string: Annotate the compound CCS(=O)(=O)c1ccc(OC)c(Nc2nccc(N(C)c3ccc4c(C)n[nH]c4c3)n2)c1 with its measured inhibition.
Result string: 7.56

Query string: Annotate the compound Cc1ccc(O)cc1Nc1ccnc2ccc(S(C)(=O)=O)cc12 with its measured inhibition.
Result string: 19.7

Query string: Annotate the compound COc1ccc2ncnc(Nc3ccc(OCc4ccccc4)cc3)c2c1 with its measured inhibition.
Result string: 12.1

Query string: Annotate the compound NC(=O)c1sc(-n2cnc3ccccc32)cc1OCc1ccccc1Br with its measured inhibition.
Result string: -0.06

Query string: Annotate the compound CN(c1ccc(NC(=O)Nc2ccc(OC(F)(F)F)cc2)cc1)c1ccnc(Nc2cccc(S(N)(=O)=O)c2)n1 with its measured inhibition.
Result string: 1.4

Query string: Annotate the compound N#Cc1c(NC(=O)c2ccccc2F)sc2c1CCCC2 with its measured inhibition.
Result string: 1.21

Query string: Annotate the compound Nc1ccc(C#Cc2cncnc2Nc2ccc(OCc3cccc(F)c3)c(Cl)c2)cc1 with its measured inhibition.
Result string: 5.98

###

target: Insulin receptor (Homo sapiens) (UniProt P06213); conditions: at 1 µM;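 further: each figure is a mean inhibition value from the GSK PKIS screening panel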
Sequence (P06213 28-758 limits assumed): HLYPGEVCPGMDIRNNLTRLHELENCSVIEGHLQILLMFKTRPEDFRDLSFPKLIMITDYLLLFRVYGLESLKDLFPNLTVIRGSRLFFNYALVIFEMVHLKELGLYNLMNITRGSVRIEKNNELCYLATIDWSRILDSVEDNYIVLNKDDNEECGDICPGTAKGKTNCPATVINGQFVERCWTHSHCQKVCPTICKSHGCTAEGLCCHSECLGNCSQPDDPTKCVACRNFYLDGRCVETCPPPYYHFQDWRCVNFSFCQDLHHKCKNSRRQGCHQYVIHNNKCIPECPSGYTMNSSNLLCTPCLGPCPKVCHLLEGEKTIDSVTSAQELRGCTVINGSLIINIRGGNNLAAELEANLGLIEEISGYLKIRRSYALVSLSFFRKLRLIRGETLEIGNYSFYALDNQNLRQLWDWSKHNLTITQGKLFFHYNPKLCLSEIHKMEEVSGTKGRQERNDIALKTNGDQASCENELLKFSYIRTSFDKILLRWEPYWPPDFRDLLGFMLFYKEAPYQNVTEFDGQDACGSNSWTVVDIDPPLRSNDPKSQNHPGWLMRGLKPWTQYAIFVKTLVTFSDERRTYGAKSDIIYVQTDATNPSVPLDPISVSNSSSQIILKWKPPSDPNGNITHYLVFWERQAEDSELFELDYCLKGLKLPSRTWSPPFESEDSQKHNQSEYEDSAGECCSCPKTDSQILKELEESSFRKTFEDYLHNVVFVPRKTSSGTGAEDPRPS
Sequence (P06213 763-1382 limits assumed): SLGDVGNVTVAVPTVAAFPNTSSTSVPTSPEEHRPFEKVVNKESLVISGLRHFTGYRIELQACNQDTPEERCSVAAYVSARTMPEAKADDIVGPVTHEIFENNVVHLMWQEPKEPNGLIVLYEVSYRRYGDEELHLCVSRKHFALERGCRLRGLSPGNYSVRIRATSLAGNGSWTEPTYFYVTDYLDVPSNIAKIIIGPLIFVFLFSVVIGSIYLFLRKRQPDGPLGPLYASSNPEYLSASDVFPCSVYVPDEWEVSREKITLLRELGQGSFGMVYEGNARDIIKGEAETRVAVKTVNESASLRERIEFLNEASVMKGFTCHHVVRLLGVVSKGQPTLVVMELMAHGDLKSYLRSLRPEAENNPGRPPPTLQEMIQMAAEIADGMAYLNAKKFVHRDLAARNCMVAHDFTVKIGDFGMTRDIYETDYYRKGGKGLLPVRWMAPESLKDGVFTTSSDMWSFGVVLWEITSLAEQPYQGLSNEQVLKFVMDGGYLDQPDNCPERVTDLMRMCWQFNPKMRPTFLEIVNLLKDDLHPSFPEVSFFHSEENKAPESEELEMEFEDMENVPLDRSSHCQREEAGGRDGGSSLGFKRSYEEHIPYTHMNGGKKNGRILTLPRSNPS
This section presents molecules with their documented inhibition values.
The response must be a number in % with no trailing unit.

Query string: Give reported inhibition for CCn1c(-c2nonc2N)nc2ccc(F)cc21 (Insulin receptor (Homo sapiens) (UniProt P06213))
Result string: 5.22

Query string: Give reported inhibition for CCn1c(-c2nonc2N)nc2c(C#CC(C)(C)O)nc(OCCNC)cc21 (Insulin receptor (Homo sapiens) (UniProt P06213))
Result string: 5.58

Query string: Give reported inhibition for Cc1cc(-c2ccccn2)cc(C)c1/C=C/c1cncc(-c2nn[nH]n2)c1 (Insulin receptor (Homo sapiens) (UniProt P06213))
Result string: 5.57

Query string: Give reported inhibition for c1ccc(Cc2nc3ccc(Nc4ncnc5ccccc45)cc3[nH]2)cc1 (Insulin receptor (Homo sapiens) (UniProt P06213))
Result string: 8.19

Query string: Give reported inhibition for COc1cc2ncnc(Nc3ccc(C)c(O)c3)c2cc1OC (Insulin receptor (Homo sapiens) (UniProt P06213))
Result string: 6.96

Query string: Give reported inhibition for Cc1ccc(NC(=O)CC2CC2)cc1-c1ccc(C(=O)NCC2CC2)cc1 (Insulin receptor (Homo sapiens) (UniProt P06213))
Result string: 5.25

Query string: Give reported inhibition for COC(=O)c1cncc(/C=C/c2c(C)cc(O)cc2C)c1 (Insulin receptor (Homo sapiens) (UniProt P06213))
Result string: 0.15

Query string: Give reported inhibition for Cc1ccc2c(c1)/C(=N/Nc1ccc(S(N)(=O)=O)cc1)C(=O)N2 (Insulin receptor (Homo sapiens) (UniProt P06213))
Result string: 1.98

***
Query string: Give reported inhibition for NS(=O)(=O)c1ccc(Nc2cc(-c3cccc(O)c3)n[nH]2)cc1 (Insulin receptor (Homo sapiens) (UniProt P06213))
Result string: 3.4

Query string: Give reported inhibition for O=C(Nc1ccc(Oc2ccc3[nH]c(NC(=O)c4ccco4)nc3c2)cc1)Nc1cc(C(F)(F)F)ccc1F (Insulin receptor (Homo sapiens) (UniProt P06213))
Result string: 1.66

Query string: Give reported inhibition for CN(C)CCCn1c(-c2nonc2N)nc2cnccc21 (Insulin receptor (Homo sapiens) (UniProt P06213))
Result string: 4.75

###

tested on: Tyrosine-protein kinase ABL1 (Homo sapiens), P00519 [M351T]; conditions: at 0.1 µM
This section presents molecules with their documented inhibition values.
The response must be a number in % with no trailing unit.

Query string: Annotate the molecule O=S(=O)(CCOCc1ccc(-c2ccc3ncnc(Nc4ccc(OCc5cccc(F)c5)c(Cl)c4)c3c2)o1)c1ccccc1 with its measured inhibition.
Result string: 1.57

Query string: Annotate the molecule CCS(=O)(=O)c1ccc(OC)c(Nc2ncc(-c3cccc(OC)c3)o2)c1 with its measured inhibition.
Result string: 43.2

Query string: Annotate the molecule COc1ccc(-c2nn3ncccc3c2-c2ccnc(Nc3cccc(C(F)(F)F)c3)n2)cc1 with its measured inhibition.
Result string: 2.28

Query string: Annotate the molecule COc1cccc(-n2ncc3c(N/N=C/c4ccc(S(C)(=O)=O)cc4)ncnc32)c1 with its measured inhibition.
Result string: 84.9

Query string: Annotate the molecule Oc1cccc(-c2nc(-c3ccccc3)[nH]c2-c2ccncc2)c1 with its measured inhibition.
Result string: 8.39

Query string: Annotate the molecule CCCN1CCCC(c2ccc(Nc3nc(Nc4cc(F)ccc4C(N)=O)c4cc[nH]c4n3)c(OC)c2)C1 (centres undefined) with its measured inhibition.
Result string: 1.54

***
Query string: Annotate the molecule N#Cc1cccc(Nc2nccc(-c3cnn4ncccc34)n2)c1 with its measured inhibition.
Result string: 16.2

Query string: Annotate the molecule CN(C)C(=O)O[C@@H]1CN[C@@H](C#Cc2cc3ncnc(Nc4ccc(OCc5cccc(F)c5)c(Cl)c4)c3s2)C1 with its measured inhibition.
Result string: -1.17

Query string: Annotate the molecule COC(=O)c1cncc(/C=C/c2c(C)cc(O)cc2C)c1 with its measured inhibition.
Result string: 15.9

###

molecular target: Mitogen-activated protein kinase kinase kinase kinase 4 (Homo sapiens); details: at 0.1 µM
Description: GSK_PKIS: MAP4K4 mean inhibition at 0.1 uM [Nanosyn]
VALUE KIND: inhibition

Query string: Annotate the compound COC(=O)c1ccc2c(c1)C(=Cc1cc(Br)c(O)c(Br)c1)C(=O)N2 with its measured inhibition.
Result string: 45.5%

Query string: Annotate the compound C[C@@H](Oc1cc(-n2cnc3ccc(OCC4CCN(C)CC4)cc32)sc1C(N)=O)c1ccccc1C(F)(F)F with its measured inhibition.
Result string: -0.3%

Query string: Annotate the compound CCCN1CCCC(c2ccc(Nc3nc(Nc4cc(F)ccc4C(N)=O)c4cc[nH]c4n3)c(OC)c2)C1 (stereo not given) with its measured inhibition.
Result string: 38.3%

Query string: Annotate the compound COc1cc(Nc2nccc(-c3cnn4ncccc34)n2)cc(OC)c1 with its measured inhibition.
Result string: 26.1%

Query string: Annotate the compound ON=C1CCc2cc(-c3nc(C4CCNCC4)[nH]c3-c3ccncc3)ccc21 with its measured inhibition.
Result string: 3.95%

Query string: Annotate the compound CN(C)C(=O)O[C@H]1CN[C@H](C#Cc2cc3ncnc(Nc4ccc(OCc5cccc(F)c5)c(Cl)c4)c3s2)C1 with its measured inhibition.
Result string: 3.45%

Query string: Annotate the compound Nc1nccc(-c2c(-c3ccc(F)cc3)ncn2CCCN2CCOCC2)n1 with its measured inhibition.
Result string: 3.81%

###

target: MAP kinase-activated protein kinase 2 (Homo sapiens); details: at 0.1 µM;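 further: figures are mean inhibition values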
This section presents compounds with their documented inhibition values.
The response must be a number in % with no trailing unit.

Below are worked cases with known answers.
Query string: Give reported inhibition for NS(=O)(=O)c1ccc(Nc2cc(-c3cccc(O)c3)n[nH]2)cc1 (MAP kinase-activated protein kinase 2 (Homo sapiens))
Result string: 1.88

Query string: Give reported inhibition for ON=C1CCc2cc(-c3nc(C4CCNCC4)[nH]c3-c3ccncc3)ccc21 (MAP kinase-activated protein kinase 2 (Homo sapiens))
Result string: -0.64

Query string: Give reported inhibition for O=C1Nc2ccc(-c3cccnc3)cc2C1=Cc1cc(Br)c(O)c(Br)c1 (MAP kinase-activated protein kinase 2 (Homo sapiens))
Result string: 1.36

Query string: Give reported inhibition for COc1cc(Nc2nccc(-c3cnn4ncccc34)n2)cc(OC)c1 (MAP kinase-activated protein kinase 2 (Homo sapiens))
Result string: 0.26

Query string: Give reported inhibition for CN(C)C(=O)O[C@H]1CN[C@H](C#Cc2cc3ncnc(Nc4ccc(OCc5cccc(F)c5)c(Cl)c4)c3s2)C1 (MAP kinase-activated protein kinase 2 (Homo sapiens))
Result string: 1.5

Query string: Give reported inhibition for NS(=O)(=O)c1ccc(NC=C2C(=O)Nc3ccc4ncsc4c32)cc1 (MAP kinase-activated protein kinase 2 (Homo sapiens))
Result string: 2.28

***
Query string: Give reported inhibition for Cc1ccc2c(-c3ccnc(Nc4cccc(C(F)(F)F)c4)n3)c(-c3ccccc3)nn2n1 (MAP kinase-activated protein kinase 2 (Homo sapiens))
Result string: -1.16

Query string: Give reported inhibition for COc1cc2ncn(-c3cc(OCc4ccccc4S(C)(=O)=O)c(C#N)s3)c2cc1OC (MAP kinase-activated protein kinase 2 (Homo sapiens))
Result string: 1.6

Query string: Give reported inhibition for Cc1cc(-c2ccccn2)cc(C)c1/C=C/c1cncc(-c2nn[nH]n2)c1 (MAP kinase-activated protein kinase 2 (Homo sapiens))
Result string: 2.23

Query string: Give reported inhibition for Cc1cc(Cl)cc2c1NC(=O)C2=NNc1ccc(S(N)(=O)=O)cc1 (MAP kinase-activated protein kinase 2 (Homo sapiens))
Result string: 1.56
